Quick list: PBM E-score per entry.
# target: Ylr278c (UniProt Q05854)
# Sequence (Q05854 whole entry): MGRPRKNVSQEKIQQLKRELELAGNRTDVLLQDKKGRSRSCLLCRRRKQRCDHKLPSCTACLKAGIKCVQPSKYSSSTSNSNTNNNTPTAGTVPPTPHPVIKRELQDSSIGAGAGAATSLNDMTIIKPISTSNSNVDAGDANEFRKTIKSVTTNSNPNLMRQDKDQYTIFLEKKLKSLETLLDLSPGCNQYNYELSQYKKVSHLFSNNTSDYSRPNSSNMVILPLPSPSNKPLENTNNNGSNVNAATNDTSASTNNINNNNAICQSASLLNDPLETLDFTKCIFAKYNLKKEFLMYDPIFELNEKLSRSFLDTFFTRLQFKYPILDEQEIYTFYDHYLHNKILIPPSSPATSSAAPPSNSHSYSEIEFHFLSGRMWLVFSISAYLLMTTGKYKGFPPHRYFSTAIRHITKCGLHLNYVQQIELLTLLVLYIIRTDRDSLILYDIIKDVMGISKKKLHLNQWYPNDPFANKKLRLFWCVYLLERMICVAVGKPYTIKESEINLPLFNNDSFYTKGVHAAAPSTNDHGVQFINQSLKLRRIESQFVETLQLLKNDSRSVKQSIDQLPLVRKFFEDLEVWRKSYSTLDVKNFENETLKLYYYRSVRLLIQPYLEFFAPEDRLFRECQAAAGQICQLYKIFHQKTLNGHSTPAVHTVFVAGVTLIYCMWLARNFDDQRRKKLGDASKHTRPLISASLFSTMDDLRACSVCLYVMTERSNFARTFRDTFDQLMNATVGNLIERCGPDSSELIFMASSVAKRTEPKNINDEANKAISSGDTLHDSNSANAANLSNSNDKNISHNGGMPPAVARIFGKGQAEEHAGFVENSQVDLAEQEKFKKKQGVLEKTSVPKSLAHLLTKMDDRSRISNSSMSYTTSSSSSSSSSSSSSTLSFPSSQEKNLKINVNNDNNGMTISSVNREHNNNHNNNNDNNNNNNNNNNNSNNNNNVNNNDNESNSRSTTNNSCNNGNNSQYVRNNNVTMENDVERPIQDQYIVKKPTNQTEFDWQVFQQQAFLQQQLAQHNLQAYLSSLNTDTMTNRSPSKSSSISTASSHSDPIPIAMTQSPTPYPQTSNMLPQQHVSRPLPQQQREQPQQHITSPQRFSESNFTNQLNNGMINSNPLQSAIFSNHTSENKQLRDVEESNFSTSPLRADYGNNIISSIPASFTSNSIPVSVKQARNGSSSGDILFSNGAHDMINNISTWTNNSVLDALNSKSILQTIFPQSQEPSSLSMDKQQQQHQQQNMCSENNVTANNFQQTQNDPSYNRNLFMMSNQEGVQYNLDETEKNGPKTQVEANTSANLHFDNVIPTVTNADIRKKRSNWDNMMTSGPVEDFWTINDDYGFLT
# assay_explanation: PBM E-score (8-mer binding enrichment) (E-score (-0.5 to 0.5)); higher = stronger / more preferred TF binding
# settings: protein concentration: 200 nM; construct: GST-DNA-binding domain
Whole data set: some 33,000 sequences, median “E-score (-0.5 to 0.5)” near -0.054, cut for the highest 2% near 0.39. The sample holds the highest values, similar sequences and a random draw of the others, so the mix is not that of the screen.

[
  {
    "sequence_entry": "CGTGAGTC",
    "PBM E-score": -0.141
  },
  {
    "sequence_entry": "ACGACGGA",
    "PBM E-score": 0.301
  },
  {
    "sequence_entry": "CAGGAAAA",
    "PBM E-score": 0.00343
  },
  {
    "sequence_entry": "CTGGGTCC",
    "PBM E-score": 0.0219
  },
  {
    "sequence_entry": "GGGCGGAA",
    "PBM E-score": 0.364
  },
  {
    "sequence_entry": "CGGAGCGC",
    "PBM E-score": 0.391
  },
  {
    "sequence_entry": "AGGAGCGC",
    "PBM E-score": -0.0703
  },
  {
    "sequence_entry": "GAACTACC",
    "PBM E-score": 0.0269
  },
  {
    "sequence_entry": "AAAGTCCA",
    "PBM E-score": -0.0593
  },
  {
    "sequence_entry": "GTCTCCTA",
    "PBM E-score": -0.166
  },
  {
    "sequence_entry": "CCGACGCC",
    "PBM E-score": 0.361
  },
  {
    "sequence_entry": "AGCCGGCG",
    "PBM E-score": 0.372
  },
  {
    "sequence_entry": "AAGCGAAG",
    "PBM E-score": -0.0624
  },
  {
    "sequence_entry": "AACTCCCA",
    "PBM E-score": 0.155
  },
  {
    "sequence_entry": "GGCCGGCC",
    "PBM E-score": 0.372
  },
  {
    "sequence_entry": "AGCACCGC",
    "PBM E-score": 0.121
  },
  {
    "sequence_entry": "CGCCGCCG",
    "PBM E-score": 0.362
  },
  {
    "sequence_entry": "GCCGAACA",
    "PBM E-score": 0.21
  },
  {
    "sequence_entry": "CCGACGGA",
    "PBM E-score": 0.425
  },
  {
    "sequence_entry": "CCCGAAGA",
    "PBM E-score": 0.156
  },
  {
    "sequence_entry": "GCCGAAAA",
    "PBM E-score": 0.359
  },
  {
    "sequence_entry": "AAAGTCCG",
    "PBM E-score": 0.482
  },
  {
    "sequence_entry": "CAGTCATG",
    "PBM E-score": -0.129
  },
  {
    "sequence_entry": "CGTATGCC",
    "PBM E-score": 0.107
  },
  {
    "sequence_entry": "ACGGAAAA",
    "PBM E-score": 0.346
  },
  {
    "sequence_entry": "AAGGTCCA",
    "PBM E-score": -0.124
  },
  {
    "sequence_entry": "AGACTAAT",
    "PBM E-score": -0.0793
  },
  {
    "sequence_entry": "AACTCCCT",
    "PBM E-score": -0.072
  },
  {
    "sequence_entry": "ATGTACTC",
    "PBM E-score": -0.0177
  },
  {
    "sequence_entry": "CTATAAAG",
    "PBM E-score": 0.0306
  },
  {
    "sequence_entry": "ATATGCTA",
    "PBM E-score": -0.0729
  },
  {
    "sequence_entry": "CAGGGCGC",
    "PBM E-score": 0.0102
  },
  {
    "sequence_entry": "CCGGTCCC",
    "PBM E-score": 0.355
  },
  {
    "sequence_entry": "AGCCGGCA",
    "PBM E-score": 0.33
  },
  {
    "sequence_entry": "CGGCGGAA",
    "PBM E-score": 0.438
  },
  {
    "sequence_entry": "AATGCGGT",
    "PBM E-score": 0.116
  },
  {
    "sequence_entry": "CTTTCCGC",
    "PBM E-score": 0.332
  },
  {
    "sequence_entry": "ACCGAACA",
    "PBM E-score": 0.0403
  },
  {
    "sequence_entry": "TAAGGAAA",
    "PBM E-score": -0.131
  },
  {
    "sequence_entry": "ATTTCCTG",
    "PBM E-score": 0.0615
  },
  {
    "sequence_entry": "AGGCTGCA",
    "PBM E-score": -0.242
  },
  {
    "sequence_entry": "CTTTCATC",
    "PBM E-score": -0.135
  },
  {
    "sequence_entry": "GTCTCCAA",
    "PBM E-score": -0.111
  },
  {
    "sequence_entry": "AGCCGCAC",
    "PBM E-score": -0.0107
  },
  {
    "sequence_entry": "ATTTCCCC",
    "PBM E-score": 0.127
  },
  {
    "sequence_entry": "TCCGAACA",
    "PBM E-score": 0.429
  },
  {
    "sequence_entry": "TCGGAAAA",
    "PBM E-score": 0.426
  },
  {
    "sequence_entry": "GCGATGCC",
    "PBM E-score": 0.0401
  },
  {
    "sequence_entry": "AACTCCGT",
    "PBM E-score": 0.486
  },
  {
    "sequence_entry": "CCGACGCG",
    "PBM E-score": 0.394
  },
  {
    "sequence_entry": "AAACGCCA",
    "PBM E-score": 0.0115
  },
  {
    "sequence_entry": "GGGACGGA",
    "PBM E-score": 0.369
  },
  {
    "sequence_entry": "CGCCGGCA",
    "PBM E-score": 0.39
  },
  {
    "sequence_entry": "AAATAGCC",
    "PBM E-score": -0.00231
  },
  {
    "sequence_entry": "AGTCGGGG",
    "PBM E-score": 0.282
  },
  {
    "sequence_entry": "ATGGGTTG",
    "PBM E-score": -0.114
  },
  {
    "sequence_entry": "GAACGATC",
    "PBM E-score": 0.041
  },
  {
    "sequence_entry": "ACTCAATA",
    "PBM E-score": -0.101
  },
  {
    "sequence_entry": "CCCTAGCG",
    "PBM E-score": -0.352
  },
  {
    "sequence_entry": "GGGGTCAC",
    "PBM E-score": -0.0137
  },
  {
    "sequence_entry": "AATGCGGA",
    "PBM E-score": 0.396
  },
  {
    "sequence_entry": "ATTTCCGG",
    "PBM E-score": 0.475
  },
  {
    "sequence_entry": "ACTTCAGG",
    "PBM E-score": -0.0351
  },
  {
    "sequence_entry": "CATCTTTA",
    "PBM E-score": -0.0964
  },
  {
    "sequence_entry": "AAGGTCCG",
    "PBM E-score": 0.426
  },
  {
    "sequence_entry": "GTAGAAGA",
    "PBM E-score": -0.177
  },
  {
    "sequence_entry": "AGGAGCGA",
    "PBM E-score": -0.0963
  },
  {
    "sequence_entry": "CGTGCGGA",
    "PBM E-score": 0.279
  },
  {
    "sequence_entry": "GGAACTCC",
    "PBM E-score": 0.393
  },
  {
    "sequence_entry": "CAAAGGTC",
    "PBM E-score": -0.224
  },
  {
    "sequence_entry": "CCGGAAAG",
    "PBM E-score": 0.319
  },
  {
    "sequence_entry": "CCGGTCCA",
    "PBM E-score": 0.21
  },
  {
    "sequence_entry": "GGGAGCGA",
    "PBM E-score": -0.116
  },
  {
    "sequence_entry": "AACTCCGA",
    "PBM E-score": 0.496
  },
  {
    "sequence_entry": "CCAATGTC",
    "PBM E-score": -0.156
  },
  {
    "sequence_entry": "CCGTTGTC",
    "PBM E-score": 0.233
  },
  {
    "sequence_entry": "AAACGCCG",
    "PBM E-score": 0.412
  },
  {
    "sequence_entry": "TCCGAAGA",
    "PBM E-score": 0.433
  },
  {
    "sequence_entry": "ATGGCTAC",
    "PBM E-score": -0.185
  },
  {
    "sequence_entry": "GACGGCAC",
    "PBM E-score": 0.0236
  },
  {
    "sequence_entry": "CCCGAAAA",
    "PBM E-score": 0.294
  },
  {
    "sequence_entry": "CTTTCCGA",
    "PBM E-score": 0.354
  }
]
